Molecular target: IRAK4 (Homo sapiens, UniProt Q9NWZ3)
Construct: with 0.1 nM IRAK4, 1.6 μM of biotinylated peptide substrate and 10 μM ATP
Experiment: IRAK4 MSD Biochemical Assay (1 mM ATP, 2 h)
Settings: room temperature, read-out: IRAK4 MSD Biochemical Assay (1 mM ATP, 2 h) IC50
pIC50: −log10 of the molar value. Structures can show the parent of a compound that is named as a salt.
We use 9 as the dividing line for pIC50: on or above the line is MET, below is NOT MET.

MOLECULE: COc1cc2nn(CC3CCOC3)cc2cc1C(=O)Nc1cccc(C(F)F)n1 (centres unmarked)
LABEL: NOT MET
//
MOLECULE: COCCCn1cc2cc(C(=O)Nc3cccc(OC)n3)c(OC(C)C)nc2n1.Cl [Example 61, hydrochloride]
LABEL: NOT MET
//
MOLECULE: CC(C)Oc1nc2nn(CC3CCOC3)cc2cc1C(=O)Nc1cc(F)cn(C)c1=O (centres unmarked)
LABEL: NOT MET
//
MOLECULE: CC(C)Oc1cc2nn(C34COC(C)(C3)C4)cc2cc1C(=O)Nc1cccc(C(F)F)n1 [Example 88, trifluoroacetate]
LABEL: MET
//
MOLECULE: CC(C)Oc1cc2nn([C@H]3CCCOC3)cc2cc1C(=O)Nc1cccc(C(F)F)n1 (single isomer, unassigned)
LABEL: MET
//
MOLECULE: COc1cc2nn(C[C@@H]3CCOC3)cc2cc1C(=O)Nc1cccc(C(F)F)n1 (single isomer, unassigned)
LABEL: NOT MET
//
MOLECULE: CC12CCC(n3cc4cc(C(=O)Nc5cnn6cccnc56)c(OC5CCC5)cc4n3)(CO1)C2 (single isomer, unassigned) [Example 137]
LABEL: MET
//
MOLECULE: CC(C)Oc1cc2nn([C@@]34CC[C@@](C)(C3)OC4)cc2cc1C(=O)Nc1cccc(C(F)F)n1 (single isomer, unassigned)
LABEL: MET
//
MOLECULE: Cc1cnc2c(NC(=O)c3cc4cn(C[C@@H]5CCOC5)nc4nc3OC3CCC3)cnn2c1 (single isomer, unassigned)
LABEL: MET

---

Quick reference for efflux ratio at 120 min, 1 μM among some molecules
Molecular target: MDR1 (P-gp) (Homo sapiens)
Construct: host or cells: MDCK cells
Test: MDR1-MDCK assay (efflux ratio)
Format: in vitro ADME
Conditions: human, MDCK-MDR1, 1 μM compound, 120 minutes incubation; read-out: MDR1-MDCK Efflux Ratio; (B-A/A-B)
Counter-ions that a name gives are not always drawn.

MOLECULE: CC12CC(n3cc4cc(C(=O)Nc5cccn(C(F)F)c5=O)c(OC5CCC5)cc4n3)(CO1)C2 [Example 84, trifluoroacetate]
TARGET OR SYSTEM: MDR1 (P-gp) (Homo sapiens)
efflux ratio at 120 min, 1 μM: 0.9
//
MOLECULE: CC(C)Oc1cc2nn(C3COC3)cc2cc1C(=O)Nc1cccc(C(F)F)n1
TARGET OR SYSTEM: MDR1 (P-gp) (Homo sapiens)
efflux ratio at 120 min, 1 μM: 0.6
//
MOLECULE: CC(C)Oc1cc2nn(C34COC(C)(C3)C4)cc2cc1C(=O)Nc1cnn2cccnc12
TARGET OR SYSTEM: MDR1 (P-gp) (Homo sapiens)
efflux ratio at 120 min, 1 μM: 1.4
//
MOLECULE: CC(C)Oc1cc2nn(C3COC3)cc2cc1C(=O)Nc1cnn2cccnc12
TARGET OR SYSTEM: MDR1 (P-gp) (Homo sapiens)
efflux ratio at 120 min, 1 μM: 2.3

---

Quick reference for IC50 among some compounds
Target: IRAK4 (Homo sapiens, UniProt Q9NWZ3)
Construct: with 0.1 nM IRAK4, 1.6 μM of biotinylated peptide substrate and 10 μM ATP
Sequence (Q9NWZ3 1-460): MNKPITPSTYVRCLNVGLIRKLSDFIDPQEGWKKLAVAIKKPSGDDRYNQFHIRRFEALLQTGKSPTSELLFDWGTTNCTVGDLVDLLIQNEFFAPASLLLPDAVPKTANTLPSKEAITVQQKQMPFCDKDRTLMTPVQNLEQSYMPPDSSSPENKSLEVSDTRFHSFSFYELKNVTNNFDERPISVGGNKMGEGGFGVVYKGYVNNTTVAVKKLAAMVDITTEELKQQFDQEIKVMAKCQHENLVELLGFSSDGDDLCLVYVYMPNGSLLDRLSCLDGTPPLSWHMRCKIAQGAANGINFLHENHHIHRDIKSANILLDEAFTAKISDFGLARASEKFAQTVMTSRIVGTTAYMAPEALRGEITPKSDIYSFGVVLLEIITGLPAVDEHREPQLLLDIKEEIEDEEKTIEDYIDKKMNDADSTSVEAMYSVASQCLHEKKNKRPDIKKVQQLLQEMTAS
Test: IRAK4 MSD Biochemical Assay (1 mM ATP, 2 h)
Conditions: room temperature, read-out: IRAK4 MSD Biochemical Assay (1 mM ATP, 2 h) IC50
Description: The 2-hour 10 μM ATP Biochemical Assay employs a MesoScale Detection (MSD) format. The activity is quenched with 11 μl of 70 mM EDTA, pH 8. To detect the phosphorylated biotinylated peptide substrate, 30 μl of the quenched reaction mixture is added to equivalent wells of a 384 well streptavidin coated MesoScale plate (Meso Scale Discovery #L21SA-1). […]
Where a name gives a salt, the structure may show the parent alone.

COMPOUND: O=C(Nc1cccc(C(F)F)n1)c1cc2cn(CC3CCOC3)nc2cn1 (stereo not shown) [Example 8, Trifluoroacetate]
UNIT NAME: nM
IC50: 275

COMPOUND: COCCCn1cc2cc(C(=O)Nc3cccc(C(F)F)n3)c(OC)cc2n1.Cl [Example 17, hydrochloride]
UNIT NAME: nM
IC50: 11.3

COMPOUND: CC(C)Oc1cc2nn(C34COC(C)(C3)C4)cc2cc1C(=O)Nc1ccn(C)n1
UNIT NAME: nM
IC50: 4.8

COMPOUND: CC(C)Oc1cc2nn([C@]34CC[C@](C)(C3)OC4)cc2cc1C(=O)Nc1cccc(C(F)F)n1 (single isomer, unassigned)
UNIT NAME: nM
IC50: 0.4

COMPOUND: COc1cccc(NC(=O)c2cc3cn(C45COC(C)(C4)C5)nc3cc2OC(C)C)n1
UNIT NAME: nM
IC50: 1

COMPOUND: COc1cccc(NC(=O)c2cc3cn(CC45COC(C)(C4)C5)nc3cc2OC)n1.O=C(O)C(F)(F)F [Example 3, trifluoroacetate]
UNIT NAME: nM
IC50: 10000

COMPOUND: Cc1cnc2c(NC(=O)c3cc4cn(C[C@H]5CCOC5)nc4nc3OC(C)C)cnn2c1 (single isomer, unassigned)
UNIT NAME: nM
IC50: 0.9

---

Molecular target: IRAK4 (Homo sapiens, UniProt Q9NWZ3)
Construct: with 0.1 nM IRAK4, 1.6 μM of biotinylated peptide substrate and 10 μM ATP
Sequence (Q9NWZ3 1-460): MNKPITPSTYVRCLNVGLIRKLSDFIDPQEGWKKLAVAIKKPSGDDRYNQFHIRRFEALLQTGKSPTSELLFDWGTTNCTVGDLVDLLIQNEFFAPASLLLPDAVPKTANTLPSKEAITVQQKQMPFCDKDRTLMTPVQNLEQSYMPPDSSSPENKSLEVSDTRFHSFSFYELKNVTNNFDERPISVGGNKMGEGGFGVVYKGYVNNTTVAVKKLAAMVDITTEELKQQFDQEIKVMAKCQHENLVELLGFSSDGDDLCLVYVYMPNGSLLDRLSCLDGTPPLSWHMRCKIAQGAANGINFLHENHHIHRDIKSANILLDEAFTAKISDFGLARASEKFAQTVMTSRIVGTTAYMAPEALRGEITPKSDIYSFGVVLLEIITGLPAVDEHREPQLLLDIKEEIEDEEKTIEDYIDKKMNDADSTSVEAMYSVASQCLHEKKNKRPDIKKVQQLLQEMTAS
Assay: IRAK4 MSD Biochemical Assay (1 mM ATP, 2 h)
Settings: IRAK4 MSD Biochemical Assay (1 mM ATP, 2 h) IC50 (nM), room temperature
// boundary case: IC50 equal to 1 nM maps to false (0); strictly smaller maps to true (1)

COMPOUND: CCOc1cc2nn(C34COC(C)(C3)C4)cc2cc1C(=O)Nc1cccn(C)c1=O
LABEL: false (0)
//
COMPOUND: CC(C)Oc1cc2nn(C34COC(C)(C3)C4)cc2cc1C(=O)Nc1cccn(C(F)F)c1=O
LABEL: true (1)
//
COMPOUND: CC(C)Oc1nc2nn(CC3CCOC3)cc2cc1C(=O)Nc1cnn2cccnc12 (centres unmarked)
LABEL: false (0)
//
COMPOUND: CC(C)Oc1nc2nn(C[C@H]3CCOC3)cc2cc1C(=O)Nc1cnn2cccnc12 (single isomer, unassigned)
LABEL: true (1)

---

Quick reference for efflux ratio at 120 min, 1 μM among some compounds
Molecular target: MDR1 (P-gp) (Homo sapiens, UniProt P08183)
Construct: host or cells: MDCK cells
Sequence (P08183 whole entry): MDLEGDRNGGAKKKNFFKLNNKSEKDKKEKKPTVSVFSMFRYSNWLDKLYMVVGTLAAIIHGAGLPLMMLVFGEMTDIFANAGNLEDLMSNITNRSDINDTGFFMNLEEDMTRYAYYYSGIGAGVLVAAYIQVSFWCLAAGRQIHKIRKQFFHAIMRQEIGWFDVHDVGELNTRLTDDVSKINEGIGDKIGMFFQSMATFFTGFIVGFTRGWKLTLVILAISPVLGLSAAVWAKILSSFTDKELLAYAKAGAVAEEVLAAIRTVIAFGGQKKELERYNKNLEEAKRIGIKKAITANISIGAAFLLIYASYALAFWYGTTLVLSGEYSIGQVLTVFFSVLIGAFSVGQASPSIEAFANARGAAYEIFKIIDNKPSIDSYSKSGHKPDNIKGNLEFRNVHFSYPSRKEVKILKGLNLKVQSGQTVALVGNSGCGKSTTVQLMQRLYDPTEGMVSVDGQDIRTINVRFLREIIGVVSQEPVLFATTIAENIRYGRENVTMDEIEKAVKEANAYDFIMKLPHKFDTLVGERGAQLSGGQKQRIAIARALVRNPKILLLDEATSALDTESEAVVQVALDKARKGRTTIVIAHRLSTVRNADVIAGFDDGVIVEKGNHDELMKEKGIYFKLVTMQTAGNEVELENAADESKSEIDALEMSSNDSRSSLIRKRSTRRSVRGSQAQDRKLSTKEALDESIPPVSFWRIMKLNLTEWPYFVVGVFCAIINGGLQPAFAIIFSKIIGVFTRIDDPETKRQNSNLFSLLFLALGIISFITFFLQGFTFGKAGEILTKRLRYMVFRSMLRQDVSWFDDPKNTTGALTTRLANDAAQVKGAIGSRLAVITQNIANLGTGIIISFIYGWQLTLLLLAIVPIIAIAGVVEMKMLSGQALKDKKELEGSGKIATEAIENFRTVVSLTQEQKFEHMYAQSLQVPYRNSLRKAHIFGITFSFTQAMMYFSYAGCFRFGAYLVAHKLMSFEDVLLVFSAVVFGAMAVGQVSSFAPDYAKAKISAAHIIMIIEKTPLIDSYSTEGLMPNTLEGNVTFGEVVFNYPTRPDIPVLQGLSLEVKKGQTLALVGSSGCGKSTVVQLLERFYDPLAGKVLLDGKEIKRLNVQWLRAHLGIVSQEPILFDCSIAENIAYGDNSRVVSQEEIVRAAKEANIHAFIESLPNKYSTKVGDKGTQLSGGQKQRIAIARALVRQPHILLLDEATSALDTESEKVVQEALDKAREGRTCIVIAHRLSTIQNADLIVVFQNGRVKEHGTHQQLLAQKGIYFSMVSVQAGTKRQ
Assay: MDR1-MDCK assay (efflux ratio)
Type: in vitro ADME
Conditions: human, MDCK-MDR1, 1 μM compound, 120 minutes incubation; read-out: MDR1-MDCK Efflux Ratio; (B-A/A-B)
Protocol: • The assay makes use of human MDR1 transfected MDCK cells (NIH cell line in-licensed from Absorption Systems) • The compounds are tested at 1 μM concentration prepared in transport buffer (Hank's balanced salt solution with HEPES) • MDR1-MDCK cell are cultured for 7 days in 96 well transwell insert plates (Corning). […]
Structures can show the parent of a compound that is named as a salt.

COMPOUND: CC(C)Oc1cc2nn(C34CCC(C)(CC3)OC4)cc2cc1C(=O)Nc1cccn(C)c1=O [Example 58, Trifluoroacetate]
efflux ratio at 120 min, 1 μM: 0.9
//
COMPOUND: CC(C)Oc1cc2nn([C@@]34CC[C@@](C)(C3)OC4)cc2cc1C(=O)Nc1cccc(C(F)F)n1 (single isomer, unassigned) [Example 126]
efflux ratio at 120 min, 1 μM: 0.5
//
COMPOUND: O=C(Nc1ccn(C(F)F)n1)c1cc2cn(C[C@@H]3CCOC3)nc2nc1OC1CCCC1 (single isomer, unassigned) [Example 117]
efflux ratio at 120 min, 1 μM: 2.6
//
COMPOUND: CC(C)Oc1cc2nn(CC3CCOC3)cc2cc1C(=O)Nc1cnn2cccnc12 (stereo not shown) [Example 39]
efflux ratio at 120 min, 1 μM: 3.1
//
COMPOUND: CC(C)Oc1nc2nn(C[C@H]3CCOC3)cc2cc1C(=O)Nc1cccc(C(F)F)n1 (single isomer, unassigned) [Example 106]
efflux ratio at 120 min, 1 μM: 0.8
//
COMPOUND: Cc1cnc2c(NC(=O)c3cc4cn(C[C@H]5CCOC5)nc4nc3OC(C)C)cnn2c1 (single isomer, unassigned) [Example 104]
efflux ratio at 120 min, 1 μM: 4.8
//
COMPOUND: CC(C)Oc1nc2nn(CC3CCOC3)cc2cc1C(=O)Nc1ccn(C)n1 (stereo not shown) [Example 79]
efflux ratio at 120 min, 1 μM: 9.4
